Give measured IC50 for each item. Keep answers brief.
Tested on: human osteosarcoma cell line SJSA-1
assayName: Inhibition of proliferation of human osteosarcoma cell line SJSA-1 (DAPI staining, In Cell Analyzer)
testContext: Homo sapiens, SJSA-1, 72 h, read-out: IC50 (nM), inhibitory activity on proliferation of human osteosarcoma cell line SJSA-1, SJSA-1, incubated 72 h
Number only, in nM; omit the unit.

Consider the compound `COc1nc(OCCF)ncc1-c1nc2c(n1C(C)C)[C@@]1(C(=O)Nc3cc(Cl)ccc31)N(c1cc(Cl)ccc1C)C2=O` and give its recorded IC50.
81.5

Consider the compound `COc1cc(C#N)ccc1-c1nc2c(n1C(C)C)[C@]1(C(=O)Nc3cc(Cl)ccc31)N(c1cc(Cl)ccc1C)C2=O` and give its recorded IC50.
2440

Consider the compound `COc1ccc(C#N)cc1-c1nc2c(n1C(C)C)[C@@]1(C(=O)Nc3cc(Cl)ccc31)N(c1cc(Cl)ccc1C)C2=O` and give its recorded IC50.
5.95

###

assayName: Pharmacokinetics in ICR mice after intravenous and intragastric administration
Format: in vivo
testContext: male, ICR, mouse, plasma, po, 5 mg/kg, oral intragastric administration 5 mg/kg; read-out: AUC0-t
measuredAttribute: AUC(0-t) (ng·h/mL)
Number only, in ng·h/mL; omit the unit.

Consider the compound `COc1cc(OC)c(-c2nc3c(n2C(C)C)[C@@]2(C(=O)Nc4cc(Cl)ccc42)N(c2cc(Cl)cnc2C)C3=O)cn1` and give its recorded AUC(0-t).
5500

Consider the compound `COc1nc(N(C)C)ncc1-c1nc2c(n1C(C)C)[C@@]1(C(=O)Nc3cc(Cl)ccc31)N(c1cc(Cl)cnc1C)C2=O` and give its recorded AUC(0-t).
8600

Consider the compound `CCOc1cc(OC)c(-c2nc3c(n2C(C)C)[C@@]2(C(=O)Nc4cc(Cl)ccc42)N(c2cc(Cl)cnc2C)C3=O)cn1` and give its recorded AUC(0-t).
8780

###

Give measured MRT inf for each item. Keep answers brief.
assayName: Pharmacokinetics in ICR mice after intravenous and intragastric administration
Assay type: in vivo
testContext: male, ICR, mouse, plasma, po, 5 mg/kg, ICR mice, PO 5 mg/kg, mean of 3 animals; read-out: MRT(0-∞)
Number only, in h; omit the unit.

Consider the molecule CCOc1cc(OC)c(-c2nc3c(n2C(C)C)[C@@]2(C(=O)Nc4cc(Cl)ccc42)N(c2cc(Cl)ccc2F)C3=O)cn1 [Example S-98] and give its recorded MRT inf.
4.65

Consider the molecule COc1cc(C2CC2)ncc1-c1nc2c(n1C(C)C)[C@@]1(C(=O)Nc3cc(Cl)ccc31)N(c1cc(Cl)ccc1C)C2=O [Example S-103] and give its recorded MRT inf.
3.98

Consider the molecule CCOc1cc(OC)c(-c2nc3c(n2C(C)C)[C@@]2(C(=O)Nc4cc(Cl)ccc42)N(c2cc(Cl)cnc2C)C3=O)cn1 [Example S-96] and give its recorded MRT inf.
2.91

Consider the molecule COc1nc(OCCF)ncc1-c1nc2c(n1C(C)C)[C@@]1(C(=O)Nc3cc(Cl)ccc31)N(c1cc(Cl)ccc1C)C2=O [Example S-140] and give its recorded MRT inf.
3.49

Consider the molecule COc1cc(OC(C)C)ncc1-c1nc2c(n1C(C)C)[C@@]1(C(=O)Nc3cc(Cl)ccc31)N(c1cc(Cl)ccc1C)C2=O [Example S-69] and give its recorded MRT inf.
4.82

Consider the molecule COc1cc(C(C)C)ccc1-c1nc2c(n1C(C)C)[C@@]1(C(=O)Nc3cc(Cl)ccc31)N(c1cc(Cl)ccc1C)C2=O [Example S-32] and give its recorded MRT inf.
3.28

Consider the molecule CCOc1cc(OC)c(-c2nc3c(n2C(C)C)[C@@]2(C(=O)Nc4cc(Cl)ccc42)N(c2cc(Cl)ccc2C)C3=O)cn1 [Example S-72] and give its recorded MRT inf.
3.01

Consider the molecule COc1cc(OC)c(-c2nc3c(n2C(C)C)[C@@]2(C(=O)Nc4cc(Cl)ccc42)N(c2cc(Cl)ccc2F)C3=O)cn1 [Example S-133] and give its recorded MRT inf.
2.25

Consider the molecule COc1nc(N(C)C)ncc1-c1nc2c(n1C(C)C)[C@@]1(C(=O)Nc3cc(Cl)ccc31)N(c1cc(Cl)cnc1C)C2=O [Example S-135] and give its recorded MRT inf.
2.67

Consider the molecule COc1cc(OC)c(-c2nc3c(n2C(C)C)[C@@]2(C(=O)Nc4cc(Cl)ccc42)N(c2cc(Cl)cnc2C)C3=O)cn1 [Example S-131] and give its recorded MRT inf.
2.34

###

Test system: human osteosarcoma cell line SJSA-1
assayName: Inhibition of proliferation of human osteosarcoma cell line SJSA-1 (DAPI staining, In Cell Analyzer)
testContext: Homo sapiens, SJSA-1, 72 h, read-out: IC50 (nM), inhibitory activity on proliferation of human osteosarcoma cell line SJSA-1, SJSA-1, incubated 72 h
Label 1 when IC50 < 200 nM; otherwise -1.

Item COc1nc(N(C)C)ncc1-c1nc2c(n1C(C)C)[C@@]1(C(=O)Nc3cc(Cl)ccc31)N(c1cc(Cl)cnc1C)C2=O [Example S-135] : IC50 beneath 200 nM, strictly?
1

Item COc1ccc(C#N)cc1-c1nc2c(n1C(C)C)[C@]1(C(=O)Nc3cc(Cl)ccc31)N(c1cc(Cl)ccc1C)C2=O [Example R-13] : IC50 beneath 200 nM, strictly?
-1

Item COc1cc(OC(C)C)ncc1-c1nc2c(n1C(C)C)[C@]1(C(=O)Nc3cc(Cl)ccc31)N(c1cc(Cl)ccc1C)C2=O [Example R-69] : IC50 beneath 200 nM, strictly?
-1

Item COc1cc(C)ccc1-c1nc2c(n1C(C)C)[C@@]1(C(=O)Nc3cc(Cl)ccc31)N(c1cc(Cl)ccc1C)C2=O [Example S-24] : IC50 beneath 200 nM, strictly?
1

Item COc1cc(F)ccc1-c1nc2c(n1C(C)C)[C@]1(C(=O)Nc3cc(Cl)ccc31)N(c1cc(Cl)ccc1C)C2=O [Example R-4] : IC50 beneath 200 nM, strictly?
-1

Item CCn1c(-c2cnc(OC)nc2OC)nc2c1[C@@]1(C(=O)Nc3cc(Cl)ccc31)N(c1cc(Cl)ccc1C)C2=O [Example S-26] : IC50 beneath 200 nM, strictly?
1

Item COc1ccc(N2C(=O)c3nc(-c4ccccc4OC)n(C(C)C)c3[C@@]23C(=O)Nc2cc(Cl)ccc23)cc1Cl [Example S-63] : IC50 beneath 200 nM, strictly?
1

Item COc1ncc(-c2nc3c(n2C(C)C)[C@@]2(C(=O)Nc4cc(Cl)ccc42)N(c2cc(C)cc(Cl)c2)C3=O)c(OC)n1 [Example S-51] : IC50 beneath 200 nM, strictly?
1

Item COc1nc(OCCF)ncc1-c1nc2c(n1C(C)C)[C@]1(C(=O)Nc3cc(Cl)ccc31)N(c1cc(Cl)ccc1C)C2=O [Example R-140] : IC50 beneath 200 nM, strictly?
-1

Item COc1cc(C2CC2)ncc1-c1nc2c(n1C(C)C)[C@]1(C(=O)Nc3cc(Cl)ccc31)N(c1cc(Cl)cnc1C)C2=O [Example R-143] : IC50 beneath 200 nM, strictly?
-1

Item COc1nc(C2CC2)ncc1-c1nc2c(n1C(C)C)[C@@]1(C(=O)Nc3cc(Cl)ccc31)N(c1cc(F)cc(Cl)c1)C2=O [Example S-174] : IC50 beneath 200 nM, strictly?
1

Item COc1cnccc1-c1nc2c(n1C(C)C)[C@]1(C(=O)Nc3cc(Cl)ccc31)N(c1cc(Cl)ccc1C)C2=O [Example R-10] : IC50 beneath 200 nM, strictly?
-1

Item COc1cc(C2CC2)ncc1-c1nc2c(n1C(C)C)[C@@]1(C(=O)Nc3cc(Cl)ccc31)N(c1cc(Cl)ccc1C)C2=O [Example S-103] : IC50 beneath 200 nM, strictly?
1

Item COc1nc(C(C)C)ccc1-c1nc2c(n1C(C)C)[C@@]1(C(=O)Nc3cc(Cl)ccc31)N(c1cc(Cl)ccc1C)C2=O [Example S-149] : IC50 beneath 200 nM, strictly?
1

Item CCN(CC)c1ccc(-c2nc3c(n2C(C)C)[C@@]2(C(=O)Nc4cc(Cl)ccc42)N(c2cc(Cl)ccc2C)C3=O)c(OC)c1 [Example S-105] : IC50 beneath 200 nM, strictly?
-1

Item COc1ccc(CC(=O)N(C)C)cc1-c1nc2c(n1C(C)C)[C@@]1(C(=O)Nc3cc(Cl)ccc31)N(c1cc(Cl)ccc1C)C2=O [Example S-70] : IC50 beneath 200 nM, strictly?
1

Item COc1cc(N(C)C)c(C)cc1-c1nc2c(n1C(C)C)[C@]1(C(=O)Nc3cc(Cl)ccc31)N(c1cc(Cl)ccc1C)C2=O [Example R-91] : IC50 beneath 200 nM, strictly?
-1

Item CCOc1ccc(-c2nc3c(n2C(C)C)[C@@]2(C(=O)Nc4cc(Cl)ccc42)N(c2cccc(Cl)c2)C3=O)c(OC)c1 [Example S-100] : IC50 beneath 200 nM, strictly?
-1

Item Cc1ccc(Cl)cc1N1C(=O)c2nc(-c3ccccc3OC(C)C)n(C(C)C)c2[C@@]12C(=O)Nc1cc(Cl)ccc12 [Example S-34] : IC50 beneath 200 nM, strictly?
-1
